Hello, the source for this data is ChEMBL document CHEMBL3044924, in case you need it.

Tested on: Myzus persicae
Assay: Insecticidal activity against adult Myzus persicae (green peach aphid) in compound treated cabbage leaves assessed as mortality at 12.5 mg/L at 25 degC and 85% RH for 24 hr
Assay type: functional
The entries below come with measured mortality at 12.5 µg/mL values attached.
Give just the number in %; leave the unit off.

Answered examples (6):
For Myzus persicae, give mortality at 12.5 µg/mL of the listed compound: CCCCNC(=O)c1ccc(Cl)cc1C(=O)NN=Cc1cccs1
9.4

For Myzus persicae, give mortality at 12.5 µg/mL of the listed compound: Cc1ccc(C=NNC(=O)c2cc(Cl)ccc2C(=O)NC2CCCCC2)o1
0

For Myzus persicae, give mortality at 12.5 µg/mL of the listed compound: CC(C)NC(=O)c1ccc(Cl)cc1C(=O)NN=Cc1ccc(F)cc1
21.9

For Myzus persicae, give mortality at 12.5 µg/mL of the listed compound: O=C(NN=Cc1ccccc1F)c1cc(Cl)ccc1C(=O)NC1CCCCC1
5.9

For Myzus persicae, give mortality at 12.5 µg/mL of the listed compound: O=C(NN=Cc1ccco1)c1cc(Cl)ccc1C(=O)NC1CCCCC1
8.2

For Myzus persicae, give mortality at 12.5 µg/mL of the listed compound: Cc1ccsc1C=NNC(=O)c1cc(Cl)ccc1C(=O)NC1CCCCC1
22.4

---
For Myzus persicae, give mortality at 12.5 µg/mL of the listed compound: CC(C)NC(=O)c1ccc(Cl)cc1C(=O)NN=Cc1ccc(O)cc1
5.4

For Myzus persicae, give mortality at 12.5 µg/mL of the listed compound: CCCCNC(=O)c1ccc(Cl)cc1C(=O)NN=Cc1ccccc1F
9.7

For Myzus persicae, give mortality at 12.5 µg/mL of the listed compound: Cc1ccc(C=NNC(=O)c2cc(Cl)ccc2C(=O)NC(C)C)o1
13.8

For Myzus persicae, give mortality at 12.5 µg/mL of the listed compound: Cc1ccsc1C=NNC(=O)c1cc(Cl)ccc1C(=O)NC(C)C
16.3

For Myzus persicae, give mortality at 12.5 µg/mL of the listed compound: CC(C)NC(=O)c1ccc(Cl)cc1C(=O)NN=Cc1ccco1
18.6

For Myzus persicae, give mortality at 12.5 µg/mL of the listed compound: O=C(NN=Cc1ccc(O)cc1)c1cc(Cl)ccc1C(=O)NC1CCCCC1
25.7

For Myzus persicae, give mortality at 12.5 µg/mL of the listed compound: CCCCNC(=O)c1ccc(Cl)cc1C(=O)NN=Cc1ccc(F)cc1
19

---

Tested on: Myzus persicae
Experiment: Insecticidal activity against adult Myzus persicae (green peach aphid) in compound treated cabbage leaves assessed as mortality at 12.5 mg/L at 25 degC and 85% RH for 24 hr
Type: functional
Given measured mortality at 12.5 µg/mL, output Satisfied if it is greater than or equal to 20% and Not satisfied if not.

Does mortality at 12.5 µg/mL meet or surpass 20% for O=C(NN=Cc1ccccc1Cl)c1cc(Cl)ccc1C(=O)NC1CCCCC1 ?
Satisfied

Does mortality at 12.5 µg/mL meet or surpass 20% for CC(C)NC(=O)c1ccc(Cl)cc1C(=O)NN=Cc1cccs1 ?
Satisfied

Does mortality at 12.5 µg/mL meet or surpass 20% for Cc1ccc(C=NNC(=O)c2cc(Cl)ccc2C(=O)NC(C)C)s1 ?
Satisfied

Does mortality at 12.5 µg/mL meet or surpass 20% for Cc1nn(-c2ccccc2)c(Cl)c1C=NNC(=O)c1cc(Cl)ccc1C(=O)NC1CCCCC1 ?
Not satisfied

Does mortality at 12.5 µg/mL meet or surpass 20% for CC(C)NC(=O)c1ccc(Cl)cc1C(=O)NN=Cc1ccccc1Cl ?
Not satisfied

Does mortality at 12.5 µg/mL meet or surpass 20% for CCCCNC(=O)c1ccc(Cl)cc1C(=O)NN=Cc1ccc(C(F)(F)F)cc1 ?
Not satisfied

---
Does mortality at 12.5 µg/mL meet or surpass 20% for CCCCNC(=O)c1ccc(Cl)cc1C(=O)NN=Cc1ccco1 ?
Not satisfied
